TESTED_SYSTEM: gp120 of viral strain MP568 (CRF02) (HIV, strain MP568 (CRF02))
EXPERIMENT_SUMMARY: cell-based or functional assay
*1 amine or outer side, *2 acyl side, *3 side chain or, on linkers, in order; H or OH if unused. [ ]: non-standard residue; d: D form. U1 = 4-cyclohexylmethoxy-L-phenylalanine, O=C([C@H](Cc1ccc(OCC2CCCCC2)cc1)N[*:1])[*:2]; Tpa = thiopropionic acid
Measured EC50 (antiviral activity, TZM-bl cells, luciferase) values are reported for all entries that follow.
Numeric only. Scale: nM

# BINDER, VAL
records = [
    ("mCD4.1-PS1 (N-terminal gamma-aminobutyric acid (gammaAbu) acylated with 3-thiopropionyl (from SATP); all six Tyr are sulfotyrosine (YSO3); N-terminal Tpa (thiopropionic acid); Bip at position 23; C-terminal …; Lys5 N-epsilon carries the PEO2-maleimide linker bound to the thiol of the PS1 chain) peptide 1: NLHKCQLRCSSLGLLGRCAGSFCACV peptide 2: SYDYSYDYSYDYS", 310),
    ("Tpa-NLHFCQLRCKSLGLLGRCA[dP]T[U1]CACV-NH2 (disulfide (positions not given here)) [M48U1]", 129),
    ("Tpa-NLHKCQLRCRSLGLLGRCA[dP]T[U1]CACV-NH2 (disulfide (positions not given here)) [mCD4.3]", 204),
    ("Tpa-NLHKCQLRCSSLGLLGRCA[dP]T[U1]CACV-NH2 (disulfide (positions not given here)) [mCD4.2]", 155),
]

Form: binder = mCD4.3-PS1 (not fully specified; N-terminal gamma-aminobutyric acid (gammaAbu) acylated with 3-thiopropionyl (from SATP); all six Tyr are sulfotyrosine (YSO3); N-terminal Tpa; D-proline at position 21; U1 (4-cyclohexylmethoxy-L-phenylalanine) at position 23; C-terminal amide; Lys5 N-epsilon carries the PEO2-maleimide linker bound to the thiol of the PS1 chain) peptide 1: NLHKCQLRCRSLGLLGRCAPTFCACV peptide 2: SYDYSYDYSYDYS ; EC50 (antiviral activity, TZM-bl cells, luciferase) = 4.2
